Biological target: Hepatocyte growth factor receptor (Homo sapiens, UniProt P08581)
Sequence (P08581 whole entry): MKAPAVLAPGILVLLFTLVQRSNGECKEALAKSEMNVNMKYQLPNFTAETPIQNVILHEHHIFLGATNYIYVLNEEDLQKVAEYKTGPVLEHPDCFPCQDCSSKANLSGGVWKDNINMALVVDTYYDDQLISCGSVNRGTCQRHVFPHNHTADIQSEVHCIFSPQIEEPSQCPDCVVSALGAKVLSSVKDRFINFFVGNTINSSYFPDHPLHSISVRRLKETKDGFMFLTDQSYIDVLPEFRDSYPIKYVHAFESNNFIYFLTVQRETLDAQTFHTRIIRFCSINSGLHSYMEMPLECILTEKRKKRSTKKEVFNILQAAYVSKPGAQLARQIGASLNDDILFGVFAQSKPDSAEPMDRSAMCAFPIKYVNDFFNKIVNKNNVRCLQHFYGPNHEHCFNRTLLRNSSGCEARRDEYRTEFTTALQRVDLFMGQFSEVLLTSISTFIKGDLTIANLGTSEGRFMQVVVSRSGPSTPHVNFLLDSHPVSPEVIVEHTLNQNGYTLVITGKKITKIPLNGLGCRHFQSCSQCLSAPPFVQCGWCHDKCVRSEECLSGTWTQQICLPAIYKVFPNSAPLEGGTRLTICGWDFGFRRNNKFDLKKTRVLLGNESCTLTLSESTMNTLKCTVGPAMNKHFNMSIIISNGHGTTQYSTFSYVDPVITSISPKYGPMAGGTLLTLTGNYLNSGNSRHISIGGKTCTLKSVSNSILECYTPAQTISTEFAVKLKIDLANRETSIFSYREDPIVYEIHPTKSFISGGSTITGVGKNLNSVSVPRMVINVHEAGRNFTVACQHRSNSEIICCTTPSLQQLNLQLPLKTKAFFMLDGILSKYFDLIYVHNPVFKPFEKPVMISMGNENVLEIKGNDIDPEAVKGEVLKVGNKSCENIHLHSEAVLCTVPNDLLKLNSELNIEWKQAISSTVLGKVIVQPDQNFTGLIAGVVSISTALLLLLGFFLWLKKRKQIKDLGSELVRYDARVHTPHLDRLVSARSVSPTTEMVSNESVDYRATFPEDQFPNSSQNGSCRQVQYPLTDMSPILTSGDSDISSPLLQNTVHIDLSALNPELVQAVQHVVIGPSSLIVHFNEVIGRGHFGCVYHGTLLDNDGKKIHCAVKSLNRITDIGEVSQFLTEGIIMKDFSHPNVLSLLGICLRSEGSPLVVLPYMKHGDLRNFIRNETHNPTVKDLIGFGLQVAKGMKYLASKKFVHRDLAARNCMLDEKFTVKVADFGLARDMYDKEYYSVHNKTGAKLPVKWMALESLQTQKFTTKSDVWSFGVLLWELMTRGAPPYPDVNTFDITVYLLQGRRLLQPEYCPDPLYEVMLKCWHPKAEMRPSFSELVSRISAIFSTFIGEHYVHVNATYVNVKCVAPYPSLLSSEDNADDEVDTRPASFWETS
recorded-endpoint: IC50 (nM)
Enter your answer as a number in nM; do not include the unit.

Lab note: COc1cc2c(Oc3ccc(-c4cnc(Nc5ccc(F)cc5)n(C)c4=O)cc3F)ccnc2cc1OCCCN1CCOCC1 gave IC50 of 4.9

Lab note: COc1ccc2c(Oc3ccc(NC(=O)c4c(C)n(CC(C)(C)O)n(-c5ccccc5)c4=O)cc3F)ccnc2c1 gave IC50 of 2.7

Lab note: COc1cc2ncnc(Oc3ccc(NC(=O)NC(=O)c4c(F)cccc4F)nc3)c2cc1OC gave IC50 of 430

Lab note: CN(C)CCNC(=O)c1cc(Br)c2c(c1)NC(=O)/C2=N\NC(=O)Cc1ccc2c(c1)CCO2 gave IC50 of 100

Lab note: CC(C(=O)NN=C1C(=O)Nc2ccc(C(=O)N3CCCC3CN3CCCC3)c(Cl)c21)c1ccc(F)cc1 (stereo not drawn) gave IC50 of 430

Lab note: COc1cc2c(Oc3ccc(-c4cnc(Cc5ccccc5)n(C)c4=O)cc3F)ccnc2cc1OCCCN1CCOCC1 gave IC50 of 17

Lab note: COc1cc2c(Oc3ccc(-c4cnc(Cc5ccccc5)n(C)c4=O)cc3F)ccnc2cc1OCCCN1CCN(C)CC1 gave IC50 of 9.2

Lab note: Cn1cnc(-c2cc3cccc(Oc4ccc(NC(=S)NC(=O)Cc5ccccc5)cc4F)c3s2)c1 gave IC50 of 29

* * *

Molecular target: UniProt:P08581
Kindly apply the following: rule met if IC50 is less than 200 nM, rule not met in every other case.

Please state whether IC50 is below 200 nM for Cc1[nH]c(/C=C2\C(=O)Nc3ccc(S(=O)(=O)N4CCc5ccccc54)cc32)c(C)c1C(=O)N1CCN(C)CC1
rule met

Please state whether IC50 is below 200 nM for O=C(Cc1ccccc1)NC(=S)Nc1ccc(Oc2ccnc3cc(C(=O)C4CCCO4)sc23)c(F)c1 (centres undefined)
rule met

Please state whether IC50 is below 200 nM for O=C(Nc1ccc(Oc2ccnc3ccsc23)cc1)NC1CC1c1ccccc1 (centres undefined)
rule not met

Please state whether IC50 is below 200 nM for Cn1cc(CC(=O)N/N=C2\C(=O)Nc3ccc(C(=O)N4CCCC4CN4CCCC4)c(Cl)c32)ccc1=O (centres undefined)
rule not met

Please state whether IC50 is below 200 nM for Cc1cccc2c1NC(=O)/C2=N\NC(=O)Cc1ccc(O)c(Cl)c1
rule met

Please state whether IC50 is below 200 nM for CCN1CCN(CCCOc2cc3nccc(Oc4ccc(-c5cnc(Cc6ccccc6)n(C)c5=O)cc4F)c3cc2OC)CC1
rule met

Please state whether IC50 is below 200 nM for CN(CCN1CCN(N)CC1)Cc1ccc(-c2cc3nccc(Oc4ccc(NC(=O)N5CCN(c6ccccc6)C5=O)cc4F)c3s2)cc1
rule met

Please state whether IC50 is below 200 nM for O=C(Cc1ccccc1)NC(=S)Nc1ccc(Oc2cccc3cc(-c4ncccn4)sc23)c(F)c1
rule met

The reported measurements were obtained from ChEMBL document CHEMBL1821609.
